# experimental target: HLA-A*0201
// map ELISA (Absorption-Pass/Fail Control) onto a label; ranges lowest = under 0.1 absorption, middle = from 0.1 absorption up to 1 absorption, highest = 1 absorption and over

As a guide, the following entries are already answered.
>>> assigned_class("VLLFAIVSL (modifications not checked) [… (SEQ ID NO: 11)]")
"middle"
>>> assigned_class("IVSLVKSDQ (modifications not checked) [… (SEQ ID NO: 15)]")
"lowest"
>>> assigned_class("AQDILEKKH (modifications not checked) [… (SEQ ID NO: 21)]")
"middle"
>>> assigned_class("NVPEWSYIV (modifications not checked) [… (SEQ ID NO: 25)]")
"highest"
>>> assigned_class("FAIVSLVKS (modifications not checked) [… (SEQ ID NO: 13)]")
"lowest"
>>> assigned_class("AIVSLVKSD (modifications not checked) [… (SEQ ID NO: 14)]")
"middle"

# input Returns: class label. Input: MEKNVTVTH (modifications not checked) [… (SEQ ID NO: 20)]
# output lowest

# input Returns: class label. Input: LLFAIVSLV (modifications not checked) [… (SEQ ID NO: 12)]
# output highest

# input Returns: class label. Input: HANNSTEQV (modifications not checked) [… (SEQ ID NO: 17)]
# output middle
